target: T1, rat IGF-I receptor (rat, UniProt P24062 31-1370); assay: cell-based ELISA, 2 nM antibody on HEK293T cells expressing the receptor, A450-A650
T1 construct: Whole entry as named; expressed on HEK293T cells; also called IGF-I receptor of rat; NP_434694
T1 sequence (P24062 31-1370 limits assumed): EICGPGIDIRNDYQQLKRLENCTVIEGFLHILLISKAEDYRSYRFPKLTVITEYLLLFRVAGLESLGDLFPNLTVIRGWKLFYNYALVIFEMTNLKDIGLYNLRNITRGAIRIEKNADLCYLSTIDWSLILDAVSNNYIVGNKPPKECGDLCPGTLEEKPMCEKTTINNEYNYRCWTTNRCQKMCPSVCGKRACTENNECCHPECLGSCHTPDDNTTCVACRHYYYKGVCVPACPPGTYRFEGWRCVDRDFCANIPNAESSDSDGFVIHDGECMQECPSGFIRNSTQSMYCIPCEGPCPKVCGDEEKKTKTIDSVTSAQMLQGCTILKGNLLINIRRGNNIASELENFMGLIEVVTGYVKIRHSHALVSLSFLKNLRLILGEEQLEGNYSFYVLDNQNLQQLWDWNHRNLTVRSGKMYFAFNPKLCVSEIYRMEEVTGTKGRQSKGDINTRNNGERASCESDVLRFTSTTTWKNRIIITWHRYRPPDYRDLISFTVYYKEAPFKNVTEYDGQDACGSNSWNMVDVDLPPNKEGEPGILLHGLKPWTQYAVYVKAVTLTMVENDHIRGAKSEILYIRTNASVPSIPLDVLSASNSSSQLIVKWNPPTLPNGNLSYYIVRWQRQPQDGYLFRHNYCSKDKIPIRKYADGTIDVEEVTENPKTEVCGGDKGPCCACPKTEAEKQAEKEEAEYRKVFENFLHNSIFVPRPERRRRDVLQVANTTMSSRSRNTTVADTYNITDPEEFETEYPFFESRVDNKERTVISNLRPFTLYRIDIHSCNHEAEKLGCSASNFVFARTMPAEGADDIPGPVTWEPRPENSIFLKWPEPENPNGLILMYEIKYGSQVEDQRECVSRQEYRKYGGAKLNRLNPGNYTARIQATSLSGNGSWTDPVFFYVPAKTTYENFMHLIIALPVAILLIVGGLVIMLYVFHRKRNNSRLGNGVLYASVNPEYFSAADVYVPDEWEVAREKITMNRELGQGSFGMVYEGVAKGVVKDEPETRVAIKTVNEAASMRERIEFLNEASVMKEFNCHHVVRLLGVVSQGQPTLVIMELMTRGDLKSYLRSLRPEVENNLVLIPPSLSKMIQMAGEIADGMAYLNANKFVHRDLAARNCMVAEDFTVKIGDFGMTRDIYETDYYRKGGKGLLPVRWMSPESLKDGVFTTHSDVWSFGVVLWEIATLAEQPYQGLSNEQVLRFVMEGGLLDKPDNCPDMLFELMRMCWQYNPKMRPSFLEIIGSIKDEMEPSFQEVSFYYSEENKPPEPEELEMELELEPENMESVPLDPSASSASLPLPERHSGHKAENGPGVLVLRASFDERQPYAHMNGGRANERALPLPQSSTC
reportedEndpoint: Avidity (relative to control HEK293T cells = 1)

Some entries whose results are on file:
>  <binder>
anti-IGF-I receptor humanized antibody R11-16C (antibody, human IgG4, V domains shown, also called R11-16C antibody; R11-16VH + R11-16VL-C36A) VH: QVQLVQPGAELVKPGASVKVSCKAPGYTFTSYWMHWVRQAPGQGLEWIGETNPSNSVTNYNEKFKSKATLTVDTSTSTVYMELSSLRSEDTAVYYCTIGRGRGFAYWGQGTLVTVSS VL: DIQMTQSPSSLSASVGDRVTITCRASQNINFWLSWAQQKPGKAPKLLIYKASNLHTGVPSRFSGSGSGTDFTFTISSLQPEDIATYYCLQGQSYPYTFGQGTKLEIK

>  <reading>
0.9 fold of control cells

$$$$
>  <binder>
anti-IGF-I receptor humanized antibody R11-16D (antibody, human IgG4, V domains shown, also called R11-16D antibody; R11-16VH + R11-16VL-C36S) VH: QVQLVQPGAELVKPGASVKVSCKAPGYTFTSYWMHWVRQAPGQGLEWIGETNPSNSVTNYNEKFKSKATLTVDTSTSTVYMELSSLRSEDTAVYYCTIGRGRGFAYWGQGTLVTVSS VL: DIQMTQSPSSLSASVGDRVTITCRASQNINFWLSWSQQKPGKAPKLLIYKASNLHTGVPSRFSGSGSGTDFTFTISSLQPEDIATYYCLQGQSYPYTFGQGTKLEIK

>  <reading>
0.9 fold of control cells

$$$$

Next, consider the following binder.
Request: Avidity (relative to control HEK293T cells = 1) lookup needed for anti-IGF-I receptor humanized antibody R11-16E (antibody, human IgG4, V domains shown, also called R11-16E antibody; R11-16VH + R11-16VL-C36F) VH: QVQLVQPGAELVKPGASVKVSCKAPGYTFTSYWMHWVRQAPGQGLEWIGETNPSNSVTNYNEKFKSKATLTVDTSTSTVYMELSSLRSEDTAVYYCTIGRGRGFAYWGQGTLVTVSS VL: DIQMTQSPSSLSASVGDRVTITCRASQNINFWLSWFQQKPGKAPKLLIYKASNLHTGVPSRFSGSGSGTDFTFTISSLQPEDIATYYCLQGQSYPYTFGQGTKLEIK , thanks.
Result: 0.8 fold of control cells
